- tested_system: soluble guanylate cyclase (sGC) (Rattus norvegicus)
- Construct: endogenous in cells; host or cells: primary rat aortic smooth muscle cells
- Sequence (P20595 whole entry): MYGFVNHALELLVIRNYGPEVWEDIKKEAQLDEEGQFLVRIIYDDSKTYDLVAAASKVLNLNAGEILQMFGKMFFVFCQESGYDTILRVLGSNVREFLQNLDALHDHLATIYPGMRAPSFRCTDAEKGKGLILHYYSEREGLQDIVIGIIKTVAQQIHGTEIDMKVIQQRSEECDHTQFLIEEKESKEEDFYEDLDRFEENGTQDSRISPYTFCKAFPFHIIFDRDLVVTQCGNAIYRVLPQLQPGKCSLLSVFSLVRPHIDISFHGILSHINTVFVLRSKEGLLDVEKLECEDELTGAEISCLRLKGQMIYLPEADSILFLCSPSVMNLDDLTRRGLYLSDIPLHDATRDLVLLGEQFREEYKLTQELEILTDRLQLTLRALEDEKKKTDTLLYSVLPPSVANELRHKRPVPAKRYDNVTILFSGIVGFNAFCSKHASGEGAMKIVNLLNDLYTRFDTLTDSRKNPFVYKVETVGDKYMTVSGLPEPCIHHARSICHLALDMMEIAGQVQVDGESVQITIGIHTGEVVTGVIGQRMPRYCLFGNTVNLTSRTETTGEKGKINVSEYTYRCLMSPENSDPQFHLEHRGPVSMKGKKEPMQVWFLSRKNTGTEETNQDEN
- Sequence (P19686 whole entry partner): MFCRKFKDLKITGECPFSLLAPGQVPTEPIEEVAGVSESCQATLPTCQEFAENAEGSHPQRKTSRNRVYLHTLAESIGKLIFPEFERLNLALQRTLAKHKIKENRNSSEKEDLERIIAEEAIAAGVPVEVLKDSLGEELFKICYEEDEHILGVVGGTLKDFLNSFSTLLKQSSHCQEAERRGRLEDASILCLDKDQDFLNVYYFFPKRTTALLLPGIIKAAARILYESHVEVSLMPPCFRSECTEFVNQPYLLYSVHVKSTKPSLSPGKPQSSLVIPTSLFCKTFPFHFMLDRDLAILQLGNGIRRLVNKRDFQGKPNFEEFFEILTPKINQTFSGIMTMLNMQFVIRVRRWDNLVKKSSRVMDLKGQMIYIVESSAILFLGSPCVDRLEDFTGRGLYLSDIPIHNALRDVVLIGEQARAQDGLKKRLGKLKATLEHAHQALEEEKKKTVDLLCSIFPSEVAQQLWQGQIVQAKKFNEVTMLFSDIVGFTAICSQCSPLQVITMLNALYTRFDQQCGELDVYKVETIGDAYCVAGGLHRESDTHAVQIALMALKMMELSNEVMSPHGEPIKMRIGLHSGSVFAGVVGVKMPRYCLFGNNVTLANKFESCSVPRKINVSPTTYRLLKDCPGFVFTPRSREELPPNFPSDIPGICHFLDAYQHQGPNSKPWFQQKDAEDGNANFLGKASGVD
- assay_notes: Biological cellular assay: sGC activity by phosphorylation of VASP in rat aortic smooth muscle cells
- Format: cell-based
- measurement_conditions: primary rat aortic smooth muscle cells, pre-incubated with 10 μM ODQ, 30 min at 37° C., phospho-VASP (pSer239) fluorescent signal; read-out: Cell assay pEC50 (converted)
Counter-ions that a name gives are not always drawn.
Values of EC50 strictly less than 1 nM map to Criterion met, and values of at least 1 nM map to Criterion not met.

>>> classification("Cc1nc(C2CCN(C(=O)CO)CC2)ccc1COc1c(F)cc(F)cc1-c1cccc(N2CCC(C(=O)O)CC2)n1 [Example 33, Sodium salt]")
"Criterion not met"
>>> classification("Cc1cc(C2CCN(C(=O)C3CCOC3)CC2)ccc1COc1c(F)cc(F)cc1-c1cccc(N2CCC(C(=O)O)CC2)n1 (stereo not shown) [Example 69, Sodium salt]")
"Criterion met"
>>> classification("Cc1cc(OC2CCN(CC(F)(F)F)CC2)ccc1COc1c(F)cc(F)cc1-c1cccc(N2CCC(C(=O)O)CC2)n1 [Example 93, Sodium salt]")
"Criterion not met"
>>> classification("Cc1nc(C2CCN(CC(F)(F)F)CC2)ccc1COc1c(F)cc(F)cc1-c1cccc(N2CCC(C(=O)O)CC2)n1 [Example 14]")
"Criterion not met"
>>> classification("Cc1cc(C2CCN(C(=O)Cn3cncn3)CC2)ccc1COc1c(F)cc(F)cc1-c1cccc(N2CCC(C(=O)O)CC2)n1 [Example 84, Sodium salt]")
"Criterion not met"

Lab note: next compound to report on.
Decide: EC50 of Cc1cc(C2CCN(CC(F)(F)F)CC2)ccc1COc1c(F)cc(F)cc1-c1cccc(N2CCC(C(=O)O)CC2)n1 [Example 5] strictly below 1 nM?
Criterion met
